Data origin: the METLIN SMRT retention time set (Domingo-Almenara et al. 2019)

Consider the following compounds and their measured RP-LC retention time readings.
assay.info: gradient 5% acetonitrile 3 min, to 50% in 2 min, to 85% in 15 min, held 3 min, 100 µL/min
test.parameters: column: Zorbax Extend-C18 2.1 x 50 mm; eluents: water / acetonitrile, 0.1% formic acid
Return type: number; implicit unit s.

Example entries and their recorded answers appear below.
Task: I have this compound here, `COc1ccccc1N1CCN(Cc2nc(-c3ccc(N4CCC(C)CC4)nc3)no2)CC1` , and I need its recorded RP-LC retention time.
Result: 882

Task: Can you look up the measured RP-LC retention time of `CN(C)c1ccc(CNC(=O)C2CCN(c3cc(N4CCCCC4)ncn3)CC2)cc1` for me?
Result: 559

Task: Entry `O=C(Cn1cnc2c(sc3nc(-c4ccccc4)ccc32)c1=O)NC1CCCCC1` : reported RP-LC retention time = ?
Result: 972

Task: Form field: reported RP-LC retention time of `O=C(O)c1ccccc1-c1ccccc1C(=O)Nc1nc2ccccc2s1`
Result: 867

Task: # get_value(readout='RP-LC retention time', item= `CSc1nc(N2CCCC2)c2cnn(CCNC(=O)c3cc(-c4ccccc4)n[nH]3)c2n1` )
Result: 761

Task: I would be grateful if you could share the reported RP-LC retention time for `Cc1ccc(NC(=O)Cn2c(-c3cnccn3)nc(C)c(C)c2=O)cc1C` .
Result: 774

Task: // lookup RP-LC retention time for CN(C)CCNC(=O)C1CCc2sc(C(=O)N3CCOCC3)cc2C1 (stereo not given)
Result: 551

Task: Fill blank: measured RP-LC retention time of the compound `O=C(Nc1ccccc1)N1C[C@H]2C[C@H](C1)[C@H]1CCCC(=O)N1C2` is ____.
Result: 622

Task: Would you kindly share the measured RP-LC retention time for `COc1ccc(-c2cnn3c(C)cc(C)nc23)cc1S(=O)(=O)NCCN(C)C` ?
Result: 616

Task: Could you share which RP-LC retention time value was measured for `O=C(CN1C(=O)CCS(=O)(=O)c2ccccc21)Nc1cccc(C(F)(F)F)c1` ?
Result: 849

Others:
Task: Request the reported RP-LC retention time associated with Cc1ccc(C)c(NC(=O)N2CCCC(Cn3c(C4CC4)nc4cccnc43)C2)c1 (stereo not given)
Result: 680

Task: Returns the measured RP-LC retention time for the input compound. Input: `Cc1cccc(NC(=O)CN2CCN(Cc3nc4ccccc4[nH]3)CC2)c1C`
Result: 541

Task: Fill in: RP-LC retention time of `CCCN1CCN(CCCNC(=O)C2=Cc3cc(Br)ccc3OC2)CC1` is ___
Result: 610

Task: Reported RP-LC retention time for N#CCc1ccc(NC(=O)C2CCCN(S(=O)(=O)Cc3ccc(F)cc3)C2)cc1 (stereo not given) : what is it?
Result: 884

Task: Looking for the measured RP-LC retention time of `O=C(NCC1(CO)CC1)NC1CCCCC1` , can you help?
Result: 621

---

assay.info: gradient 5% acetonitrile 3 min, to 50% in 2 min, to 85% in 15 min, held 3 min, 100 µL/min
test.parameters: column: Zorbax Extend-C18 2.1 x 50 mm; eluents: water / acetonitrile, 0.1% formic acid
Threshold check on RP-LC retention time: strictly below 700 s is class 1; on or above 700 s is class 0.

Task: I'd appreciate it if you could check whether CC(NC(=O)c1c(O)c2sccc2[nH]c1=O)c1ccncc1 (centres undefined) has RP-LC retention time smaller than 700 s.
Result: class 1

Next:
Task: Here's an entry: `CCCn1c(=O)c(-c2ccc(C(=O)NCCOC)cc2)nc2cccnc21` . Is its RP-LC retention time below 700 s?
Result: class 0

Task: Say whether its RP-LC retention time is strictly beneath 700 s. Entry: CCC(=O)N1CCCC(C(=O)NC2CC2)C1 (centres undefined)
Result: class 1

Task: Please let me know if `C=CCNC(=O)c1cn(-c2cc(-c3nc(C(C)(C)C)no3)ccn2)cn1` shows RP-LC retention time below 700 s.
Result: class 0

Task: Does `CC(C)CCNC(=O)C1CCN(c2cncnc2N2CCN(C)CC2)CC1` have RP-LC retention time strictly under 700 s?
Result: class 1

Task: Is RP-LC retention time strictly under 700 s for the entry `COc1ccc(CC(=O)Nc2nc(S(=O)(=O)Cc3ccccc3)ns2)cc1OC` ?
Result: class 0

Task: Would you kindly verify if RP-LC retention time of O=C(c1cc2c(s1)CCC(C(=O)N1CCN(c3ccccn3)CC1)C2)N1CCOCC1 (centres undefined) is strictly less than 700 s?
Result: class 1

---

assay.info: gradient 5% acetonitrile 3 min, to 50% in 2 min, to 85% in 15 min, held 3 min, 100 µL/min
test.parameters: column: Zorbax Extend-C18 2.1 x 50 mm; eluents: water / acetonitrile, 0.1% formic acid
Simple rule here: RP-LC retention time less than 900 s is Met, otherwise Not met.

Task: Hello, is RP-LC retention time of the following compound strictly smaller than 900 s? `CC(C)Cn1c(=O)c2cc(C(=O)N3CCSCC3)nn2c2ccccc21`
Result: Not met

Task: Does `O=c1c2sccc2n(Cc2nc(-c3ccc(Cl)cc3)no2)c(=O)n1-c1ccccc1F` have RP-LC retention time strictly under 900 s?
Result: Not met

Task: Quick check: RP-LC retention time of `CCc1noc(NC(C)=O)c1-c1ccc(C)c(S(=O)(=O)Nc2cc(OC)ccc2OC)c1` under 900 s?
Result: Met

Task: Is the reported RP-LC retention time for CCc1nc2cc(N3CCCC(C(=O)NC4CC4)C3)cnc2nc1CC (configuration not stated) strictly below 900 s?
Result: Met

New cases:
Task: Given the entry `COc1cccc(-c2cn3ccn(-c4ccc(F)c(F)c4)c(=O)c3n2)c1` , would its reported RP-LC retention time be below 900 s?
Result: Met

Task: In the record for CC(C)C(=O)Nc1nc(-c2ccc3c(c2)N(C)C(=O)C(C)O3)cs1 (configuration not stated) , is RP-LC retention time less than 900 s?
Result: Met

Task: Here's an entry: `CCCn1cc(S(=O)(=O)NCc2ccc(F)cc2Cl)c2cccnc21` . Is its RP-LC retention time below 900 s?
Result: Not met

Task: Just wondering, is RP-LC retention time of `Cn1c(=O)n([C@H]2CCN(C(=O)c3ccco3)C2)c2ncccc21` below 900 s?
Result: Met

Task: Does this compound meet the criterion RP-LC retention time < 900 s? CC(C)N1C(=O)C(C)(C(=O)Nc2cccc(Cl)c2)Oc2cccnc21 (configuration not stated)
Result: Not met

Task: Is RP-LC retention time strictly under 900 s for the entry COC(=O)CNC(=O)C1COc2ccc(NC(=O)c3ccc(Br)cc3)cc2C1 (configuration not stated) ?
Result: Met

Task: Threshold test, RP-LC retention time < 900 s: `Cc1cc(C)n(-c2nc(CC(=O)N3CCc4ccccc4C3)cs2)n1`
Result: Not met

Task: Please indicate whether the reported RP-LC retention time of Cc1cc(C)c(S(=O)(=O)N2CCCC(C(=O)NCc3ccncc3)C2)c(C)c1 (configuration not stated) is strictly below 900 s.
Result: Met

---

assay.info: gradient 5% acetonitrile 3 min, to 50% in 2 min, to 85% in 15 min, held 3 min, 100 µL/min
test.parameters: column: Zorbax Extend-C18 2.1 x 50 mm; eluents: water / acetonitrile, 0.1% formic acid
experimental.endpoint: RP-LC retention time

Task: Which RP-LC retention time is listed for `O=C(Nc1ccc2c(c1)CCN2S(=O)(=O)c1ccccc1)Nc1ccccc1Cl` ?
Result: 1030 s

Task: Bench note: what RP-LC retention time did `O=c1ccc(-c2ccc(Br)cc2)nn1Cc1nc(-c2cccs2)no1` show?
Result: 1020 s

***
Task: Field request: RP-LC retention time | item: COc1cc2c(cc1OC)C1C(C(=O)NCc3ccc4c(c3)OCO4)c3ccccc3C(=O)N1CC2 (stereo unspecified)
Result: 753 s

Task: Fill blank: measured RP-LC retention time of the molecule CCCOc1nc2ccccc2nc1N1CCCC(C(=O)Nc2cccc(C(=O)OCC)c2)C1 (stereo unspecified) is ____.
Result: 1340 s

Task: RP-LC retention time for `COC(=O)c1ccc2c(=O)n(-c3cc(OC)cc(OC)c3)c(N3CCC(C)CC3)nc2c1` ?
Result: 1210 s

Task: Field request: RP-LC retention time | item: `Cc1ccc(-c2nnc(-c3cccc(S(=O)(=O)N4CCCC4)c3)o2)cc1`
Result: 1010 s

---

assay.info: gradient 5% acetonitrile 3 min, to 50% in 2 min, to 85% in 15 min, held 3 min, 100 µL/min
test.parameters: column: Zorbax Extend-C18 2.1 x 50 mm; eluents: water / acetonitrile, 0.1% formic acid
Quick rule for you: RP-LC retention time at 700 s or higher means rule met, lower means rule not met.

Worked examples follow.
Task: # bool: RP-LC retention time of `Cc1ccc(-c2cc(NC(=O)c3cccc(N(C)C)c3)on2)s1` >= 700 s
Result: rule met

Task: # check: RP-LC retention time of `Cc1sc2ccn(CC(C)C)c(=O)c2c1C(=O)NCc1ccc(N(C)C)cc1` is greater than or equal to 700 s
Result: rule not met

Task: Exam item: decide whether the reported RP-LC retention time for O=C1CCCCC(C(=O)Nc2ccc3c(c2)OCCO3)N1 (stereo unspecified) is at least 700 s.
Result: rule not met

Task: Could you tell me if the measured RP-LC retention time of Cc1cnc(C(=O)N2CCCC(c3nnc4n3CCN(C(=O)C3CC3)C4)C2)cn1 (stereo unspecified) reaches 700 s or more?
Result: rule not met

Task: State whether the measured RP-LC retention time reaches 700 s, counting equality as reaching it, for `CNC(=O)c1ccc(Nc2c(-c3ccccc3)nc3cnccn23)cc1`
Result: rule not met

Next:
Task: Given `CN(Cc1ccco1)C(=O)c1ccc2ncnc(N3CCCCC3)c2c1` , state whether its RP-LC retention time is at least 700 s.
Result: rule not met

Task: Could you tell me if the measured RP-LC retention time of `Cc1nn(-c2ccc(C(=O)NCc3cccs3)cc2)c2c1C(=O)CC(C)(C)C2` reaches 700 s or more?
Result: rule met

Task: Check the entry `Cc1cc(=O)n(CC(=O)N2CCOCC2)c(N2CCOCC2)n1` : does RP-LC retention time equal or exceed 700 s?
Result: rule not met
